system: MDA-MB-468 breast; test: NCI tumour cell line growth inhibition, 48 h; in the data active = GI50 below about 0.43 µM; inactive = the rest
Your reply should match one of these outcome classes. active, inactive

{"columns": ["compound", "class"],
 "data": [
  ["O=C(Nc1ccncc1)C(=O)c1cn(S(=O)(=O)c2cccc(F)c2)c2ccccc12", "inactive"],
  ["CCCCCCCCn1ccc2cc(NC(=O)Cn3cc(CN4CCCC4)nn3)ccc21", "inactive"],
  ["COc1cc2cc(Oc3ccc(NC(=O)Nc4ccc(Cl)c(C(F)(F)F)c4)cc3)c(C)nc2cc1OCCN1CCOCC1", "inactive"],
  ["NC(=O)NS(=O)(=O)c1ccc(N2N=C(C(F)(F)F)CC2c2cc(C(F)(F)F)cc(C(F)(F)F)c2)cc1 (stereo unspecified)", "inactive"],
  ["O=C(CCc1nnc2sc(-c3ccc(Cl)cc3Cl)nn12)c1nc2ccccc2[nH]1", "inactive"],
  ["CCCC(=O)OCC1OC(n2cnc3c(=S)nc[nH]c32)C(OC(=O)CCC)C1OC(=O)CCC (stereo unspecified)", "inactive"]
]}

What classification did "C#C[C@]1(O)CC[C@H]2[C@@H]3CC=C4c5sc(Nc6ncccc6C)nc5CC[C@]4(C)[C@H]3CC[C@@]21C" end up with in this test?
inactive

Do the same for CCN(CC)CCCC(C)Nc1c2ccc(Cl)cc2nc2ccc(O)cc12 (stereo unspecified) please
inactive

Consider next the compound "COc1ccc(-c2cnc(NC(=O)CCCCCCNC(=O)C(O)(O)C(F)(F)F)s2)cc1" in the same way.
inactive

How about this compound: "CC(C)(O)c1cncc(-c2ccc3ncnc(N4CCc5cc(F)c(Cl)cc54)c3c2)c1"
inactive

Input "Cc1ccc2c(c1)Sc1c(ccc3ccccc13)N2"
inactive

Please answer likewise for "COc1ccc2c(c1)CCCN2c1c2ccccc2nc2ccccc12"
active

Same question for "COc1ccc(-c2onc(N)c2-c2cc(OC)c3c(c2)OCO3)cc1" please.
inactive

Now consider "CNC(=O)c1cc(-c2ccc(NC(=O)Nc3ccc(N4CCN(C)CC4)c(C(F)(F)F)c3)cc2)nc2cccnc12" .
inactive

Similarly, Cc1ccc(C(=O)N(CCCN)C(c2oc3cc(Cl)ccc3c(=O)c2Cc2ccccc2)C(C)C)cc1 (stereo unspecified) ?
active

Can you handle "COc1cc2ncn(-c3cc(OCc4cccs4)c(C(N)=O)s3)c2cc1OC" next?
inactive
